Sourced from ChEMBL document CHEMBL1909294

Hepatotoxicity data, read-out HepSE_jaundice
*1 amine or outer side, *2 acyl side, *3 side chain or, on linkers, in order; H or OH if unused. Where a SMILES comes first, the peptide text is derived from it. Bridges are numbered along the chain shown (N, C = ends). [ ]: non-standard residue; d: D form. The star is where a group is joined. ξ: configuration not given here. X2 = N=C1NCCC([C@H](N[*:1])C(=O)[*:2])N1; ΔAla(Z-3-ureido) = NC(=O)N/C=C(\N)C(=O)O; ξβ3hOrn = NCCCC(N)CC(=O)*; Dap = NC[C@H](N)C(=O)O

{"columns": ["compound", "result"],
 "data": [
  ["CC1=NS(=O)(=O)c2cc(Cl)ccc2N1 [DIAZOXIDE]", 0],
  ["C[C@@H]1C[C@H]2[C@H]3[C@H]([C@@H](O)C[C@]2(C)[C@@]1(O)C(=O)CO)[C@@]1(C)C=CC(=O)C=C1C[C@H]3Cl", 0],
  ["O=C(OOC(=O)c1ccccc1)c1ccccc1 [BENZOYL PEROXIDE]", 0]
]}

Form field - read-out: HepSE_jaundice; system: Hepatotoxicity; submitted item: NC(=O)C(c1ccccc1)(c1ccccc1)[C@@H]1CCN(CCc2ccc3c(c2)CCO3)C1 0

Form field - read-out: HepSE_jaundice; system: Hepatotoxicity; submitted item: CCNC(=O)CCC/C=C\C[C@@H]1[C@@H](/C=C/[C@@H](O)CCc2ccccc2)[C@H](O)C[C@@H]1O 0

Form field - read-out: HepSE_jaundice; system: Hepatotoxicity; submitted item: CN(C)c1cc(NC(=O)CNC(C)(C)C)c(O)c2c1C[C@H]1C[C@H]3[C@H](N(C)C)C(O)=C(C(N)=O)C(=O)[C@@]3(O)C(O)=C1C2=O 1

Form field - read-out: HepSE_jaundice; system: Hepatotoxicity; submitted item: CC#C[C@]1(O)CC[C@H]2[C@@H]3CCc4cc(O)ccc4[C@H]3CC[C@@]21C 1

Form field - read-out: HepSE_jaundice; system: Hepatotoxicity; submitted item: FC(F)OC(Cl)C(F)(F)F (stereo not drawn) 1

Form field - read-out: HepSE_jaundice; system: Hepatotoxicity; submitted item: CC(C)(C#N)c1cc(Cn2cncn2)cc(C(C)(C)C#N)c1 0

Form field - read-out: HepSE_jaundice; system: Hepatotoxicity; submitted item: C[C@@H]1NC(=O)[C@@H](N)CNC(=O)[C@H](C2CCNC(=N)N2)NC(=O)/C(=C/NC(N)=O)NC(=O)[C@H](CNC(=O)CC(N)CCCN)NC1=O.N=C1NCCC([C@@H]2NC(=O)/C(=C/NC(N)=O)NC(=O)[C@H](CNC(=O)CC(N)CCCN)NC(=O)[C@H](CO)NC(=O)[C@@H](N)CNC2=O)N1 (stereo partly drawn) [CAPREOMYCIN] (H-[Dap]S[Dap](ξβ3hOrn)[ΔAla(Z-3-ureido)][X2]; lactam 1-C) 0

Form field - read-out: HepSE_jaundice; system: Hepatotoxicity; submitted item: CCN(C(C)=O)c1cccc(-c2ccnc3c(C#N)cnn23)c1 0

Form field - read-out: HepSE_jaundice; system: Hepatotoxicity; submitted item: CN(C)C(=O)C(CCN1CCC(O)(c2ccc(Cl)cc2)CC1)(c1ccccc1)c1ccccc1 [LOPERAMIDE] 0

Form field - read-out: HepSE_jaundice; system: Hepatotoxicity; submitted item: Cn1c(=O)c2[nH]cnc2n(C)c1=O.Cn1c(=O)c2[nH]cnc2n(C)c1=O.NCCN 0

Form field - read-out: HepSE_jaundice; system: Hepatotoxicity; submitted item: CC(C)c1nc(CN(C)C(=O)N[C@H](C(=O)N[C@@H](Cc2ccccc2)C[C@H](O)[C@H](Cc2ccccc2)NC(=O)OCc2cncs2)C(C)C)cs1 1

Form field - read-out: HepSE_jaundice; system: Hepatotoxicity; submitted item: N[C@@H](C(=O)N[C@@H]1C(=O)N2C(C(=O)O)=C(Cl)CC[C@H]12)c1ccccc1 [LORACARBEF ANHYDROUS] 1

Form field - read-out: HepSE_jaundice; system: Hepatotoxicity; submitted item: CC1=C(/C=C/C(C)=C/C=C/C(C)=C/C(=O)O)C(C)(C)CCC1 0

====

Hepatotoxicity data, read-out DILI positive/negative
Write the number on its own, no unit after it.

Past entries and their recorded results:
{"columns": ["molecule", "DILI positive/negative"],
 "data": [
  ["CCN(CC)CCCC(C)Nc1c2ccc(Cl)cc2nc2ccc(OC)cc12 (configuration not stated) [QUINACRINE]", 1],
  ["O=c1[nH]c(=O)n([C@@H]2O[C@H](CO)[C@@H](O)[C@@H]2F)cc1I [FIALURIDINE]", 1],
  ["Nc1ccc(C(=O)O)c(O)c1 [AMINOSALICYLIC ACID]", 1],
  ["CC(c1cc2ccccc2s1)N(O)C(N)=O (configuration not stated) [ZILEUTON]", 1],
  ["CC[N+](C)(CC)CCOC(=O)C(O)(c1ccccc1)C1CCCCC1 (configuration not stated) [OXYPHENONIUM]", 0],
  ["CCOC(=O)C(C)(C)Oc1ccc(Cl)cc1 [CLOFIBRATE]", 1],
  ["CO[C@@H]1[C@@H](OC(N)=O)[C@@H](O)[C@H](Oc2ccc3c(O)c(NC(=O)c4ccc(O)c(CC=C(C)C)c4)c(=O)oc3c2C)OC1(C)C [NOVOBIOCIN]", 1],
  ["C[S+](C)[O-] [DIMETHYL SULFOXIDE]", 0]
]}

Form field - read-out: DILI positive/negative; system: Hepatotoxicity; submitted item: CC(=O)Oc1ccc(C(c2ccc(OC(C)=O)cc2)c2ccccn2)cc1 [BISACODYL] 0

Form field - read-out: DILI positive/negative; system: Hepatotoxicity; submitted item: CN(C)C(=O)Oc1cc(OC(=O)N(C)C)cc(C(O)CNC(C)(C)C)c1 (configuration not stated) [BAMBUTEROL] 0

Form field - read-out: DILI positive/negative; system: Hepatotoxicity; submitted item: O=C(O)CCCC[C@@H]1SC[C@@H]2NC(=O)N[C@@H]21 [BIOTIN] 0

Form field - read-out: DILI positive/negative; system: Hepatotoxicity; submitted item: CCN(CC)C(=O)N1CCN(C)CC1 [DIETHYLCARBAMAZINE] 1

====

Quick reference for HepSE_cirrhosis among some compounds
system: Hepatotoxicity
Write the number on its own, no unit after it.

Past entries and their recorded results:
{"columns": ["compound", "assay.system", "measured.endpoint", "number"],
 "data": [
  ["CN(C)CCC=C1c2ccccc2COc2ccccc21 [DOXEPIN]", "Hepatotoxicity", "HepSE_cirrhosis", 0],
  ["CC(=O)CC(c1ccccc1)c1c(O)c2ccccc2oc1=O (centres undefined) [WARFARIN]", "Hepatotoxicity", "HepSE_cirrhosis", 0],
  ["CC1(C)O[C@@H]2C[C@H]3[C@@H]4C[C@H](F)C5=CC(=O)C=C[C@]5(C)[C@H]4[C@@H](O)C[C@]3(C)[C@]2(C(=O)CO)O1 [FLUNISOLIDE]", "Hepatotoxicity", "HepSE_cirrhosis", 0],
  ["CC(=O)OCC(=O)[C@@]12OC(C)(C)O[C@@H]1C[C@H]1[C@@H]3C[C@H](F)C4=CC(=O)C=C[C@]4(C)[C@@]3(F)[C@@H](O)C[C@@]12C [FLUOCINONIDE]", "Hepatotoxicity", "HepSE_cirrhosis", 0],
  ["NNC(=O)c1ccncc1 [ISONIAZID]", "Hepatotoxicity", "HepSE_cirrhosis", 0],
  ["c1ccc2[nH]c(-c3cscn3)nc2c1 [THIABENDAZOLE]", "Hepatotoxicity", "HepSE_cirrhosis", 0],
  ["CCc1cccc2c3c([nH]c12)C(CC)(CC(=O)O)OCC3 (centres undefined) [ETODOLAC]", "Hepatotoxicity", "HepSE_cirrhosis", 0],
  ["Nc1nc2ccc(OC(F)(F)F)cc2s1 [RILUZOLE]", "Hepatotoxicity", "HepSE_cirrhosis", 0]
]}

Turning to the following compound.
What does the data say about its HepSE_cirrhosis? Entry: CCN(CC)CCOC(=O)c1ccc(N)cc1Cl [CHLOROPROCAINE] 0

====

Hepatotoxicity data, read-out HepSE_elevated liver function tests
Write the number on its own, no unit after it.

Past entries and their recorded results:
{"columns": ["molecule", "measured.endpoint", "number"],
 "data": [
  ["Oc1c(Cl)cc(Cl)c(Cl)c1Cc1c(O)c(Cl)cc(Cl)c1Cl", "HepSE_elevated liver function tests", 0],
  ["CC(C)CC(N(C)C)C1(c2ccc(Cl)cc2)CCC1 (centres undefined)", "HepSE_elevated liver function tests", 0],
  ["CC(C)(C)NCC(O)COc1cccc2c1CCC(=O)N2 (centres undefined)", "HepSE_elevated liver function tests", 0],
  ["CCCNC(C)C(=O)Nc1c(C)csc1C(=O)OC (centres undefined)", "HepSE_elevated liver function tests", 0],
  ["C[C@H](CCC(=O)O)[C@H]1CC[C@H]2[C@@H]3[C@@H](O)C[C@@H]4C[C@H](O)CC[C@]4(C)[C@H]3CC[C@]12C", "HepSE_elevated liver function tests", 0]
]}

Form field - read-out: HepSE_elevated liver function tests; system: Hepatotoxicity; submitted item: O=C1Nc2ccc(Cl)cc2[C@@](C#CC2CC2)(C(F)(F)F)O1 0

Form field - read-out: HepSE_elevated liver function tests; system: Hepatotoxicity; submitted item: Nc1nc(N)c2nc(-c3ccccc3)c(N)nc2n1 0

Form field - read-out: HepSE_elevated liver function tests; system: Hepatotoxicity; submitted item: Fc1ccc([C@@H]2CCNC[C@H]2COc2ccc3c(c2)OCO3)cc1 1

Form field - read-out: HepSE_elevated liver function tests; system: Hepatotoxicity; submitted item: CCCOc1ccc(C(=O)OCCN(CC)CC)cc1N 0
